target.entity: human thyroid receptor alpha ligand-binding domain (LBD) (Homo sapiens)
procedure.text: TR-FRET thyroid receptor alpha coactivator assay (THR biochemical assay, Assay 1)
protocol.conditions: Table 4, THR-alpha, read-out: Activity category Assay 1 (EC50, THR-alpha agonist activity)
endpoint.name: EC50

INSERT INTO assay_data (compound, target_entity, reading) VALUES
  ('Nc1nn(-c2cc(Cl)c(Oc3n[nH]c(=O)cc3-c3ccc4c(c3)CCCO4)c(Cl)c2)c(=O)[nH]c1=O', 'human thyroid receptor alpha ligand-binding domain (LBD) (Homo sapiens)', '> 25 µM'),
  ('Nc1nn(-c2cc(Cl)c(Oc3cc(-c4cccc(OC(F)F)c4)c(=O)[nH]n3)c(Cl)c2)c(=O)[nH]c1=O', 'human thyroid receptor alpha ligand-binding domain (LBD) (Homo sapiens)', '0.05 to 0.25 µM'),
  ('Nc1nn(-c2cc(Cl)c(Oc3ccc4c(c3)C3(CCCC3)C(=O)N4)c(Cl)c2)c(=O)[nH]c1=O', 'human thyroid receptor alpha ligand-binding domain (LBD) (Homo sapiens)', '< 0.05 µM'),
  ('Nc1nn(-c2cc(Cl)c(Oc3n[nH]c(=O)cc3-c3ccn4cncc4c3)c(Cl)c2)c(=O)[nH]c1=O', 'human thyroid receptor alpha ligand-binding domain (LBD) (Homo sapiens)', '> 25 µM'),
  ('CC(C)NC(=O)c1c[nH]c2ccc(Oc3c(Cl)cc(-n4nc(C#N)c(=O)[nH]c4=O)cc3Cl)cc12', 'human thyroid receptor alpha ligand-binding domain (LBD) (Homo sapiens)', '> 25 µM'),
  ('Cc1cc(-n2nc(N)c(=O)[nH]c2=O)cc(C)c1Cc1ccc2c(c1)C1(CC1)C(=O)N2', 'human thyroid receptor alpha ligand-binding domain (LBD) (Homo sapiens)', '< 0.05 µM'),
  ('N#CC1CCC1c1cc(Oc2c(Cl)cc(-n3nc(N)c(=O)[nH]c3=O)cc2Cl)n[nH]c1=O (stereo not shown)', 'human thyroid receptor alpha ligand-binding domain (LBD) (Homo sapiens)', '1 to 25 µM');

###

Below is a list of entries, each paired with its recorded pEC50 value.
target.entity: human thyroid receptor beta ligand-binding domain (LBD) (Homo sapiens, UniProt P10828)
Sequence (P10828 217-461 limits assumed): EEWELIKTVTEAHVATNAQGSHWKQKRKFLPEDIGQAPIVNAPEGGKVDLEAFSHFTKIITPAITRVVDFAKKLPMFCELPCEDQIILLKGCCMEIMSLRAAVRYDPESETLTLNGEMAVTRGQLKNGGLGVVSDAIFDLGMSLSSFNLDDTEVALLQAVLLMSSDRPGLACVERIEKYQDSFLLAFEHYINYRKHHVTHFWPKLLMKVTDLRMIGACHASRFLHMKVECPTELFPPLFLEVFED
procedure.text: TR-FRET thyroid receptor beta coactivator assay (THR biochemical assay, Assay 1)
protocol.conditions: THR-beta, TR-FRET coactivator assay; read-out: Activity category Assay 1 (EC50, THR-beta agonist)
pEC50: −log10 of the molar value.
endpoint.name: pEC50

INSERT INTO assay_data (compound, endpoint_name, reading) VALUES
  ('Nc1nn(-c2cc(Cl)c(Oc3cc(C4CCc5ccccc5C4)c(=O)[nH]n3)c(Cl)c2)c(=O)[nH]c1=O (stereo not shown)', 'pEC50', '6.60 to 7.30'),
  ('Cc1cc(-n2nc(N)c(=O)[nH]c2=O)cc(C)c1Cc1cc2c(C(C)C)c[nH]c2cn1', 'pEC50', '> 7.30'),
  ('Nc1nn(-c2cc(Cl)c(Oc3ccc4c(c3)C3(CCCC3)C(=O)N4)c(Cl)c2)c(=O)[nH]c1=O', 'pEC50', '> 7.30'),
  ('CC(C)c1cc(=O)[nH]c2ccc(Oc3c(Cl)cc(-n4nc(N)c(=O)[nH]c4=O)cc3Cl)cc12', 'pEC50', '> 7.30');

###

# Emax per entry
target.entity: THR alpha (Homo sapiens)
Construct: expressed in transfected cells; host or cells: HEK293T (ATCC CRL-3216)
Sequence (P10827 1-410 isoform P10827-2): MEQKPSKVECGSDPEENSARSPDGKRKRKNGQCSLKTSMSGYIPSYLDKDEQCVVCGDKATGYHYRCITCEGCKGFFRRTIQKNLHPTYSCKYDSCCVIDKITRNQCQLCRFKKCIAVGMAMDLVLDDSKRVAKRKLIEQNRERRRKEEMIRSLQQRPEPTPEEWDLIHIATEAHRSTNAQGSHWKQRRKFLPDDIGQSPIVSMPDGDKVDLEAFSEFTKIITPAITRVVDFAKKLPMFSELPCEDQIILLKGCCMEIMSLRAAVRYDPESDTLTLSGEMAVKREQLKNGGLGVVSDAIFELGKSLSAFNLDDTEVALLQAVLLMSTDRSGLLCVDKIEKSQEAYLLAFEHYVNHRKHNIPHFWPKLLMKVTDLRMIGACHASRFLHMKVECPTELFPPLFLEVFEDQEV
Sequence (P19793 whole entry partner): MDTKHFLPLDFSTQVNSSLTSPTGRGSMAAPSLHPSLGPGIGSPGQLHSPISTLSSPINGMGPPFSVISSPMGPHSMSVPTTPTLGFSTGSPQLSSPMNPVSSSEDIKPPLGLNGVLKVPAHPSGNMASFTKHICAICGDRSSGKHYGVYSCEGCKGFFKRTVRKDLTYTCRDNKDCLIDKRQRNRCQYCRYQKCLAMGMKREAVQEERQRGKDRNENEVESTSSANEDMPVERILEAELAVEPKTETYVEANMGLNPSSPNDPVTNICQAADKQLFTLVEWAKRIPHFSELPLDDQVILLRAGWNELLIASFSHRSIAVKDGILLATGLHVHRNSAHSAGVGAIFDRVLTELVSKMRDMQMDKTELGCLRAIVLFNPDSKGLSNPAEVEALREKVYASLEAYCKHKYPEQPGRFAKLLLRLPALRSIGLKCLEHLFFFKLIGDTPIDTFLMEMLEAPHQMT
procedure.text: HEK293T THR alpha/RXR luciferase reporter assay (Assay 2)
Assay type: cell-based
protocol.conditions: HEK-293T, Table 5; Assay 2; THRα; read-out: Activity category Assay 2 THRα (Emax)
endpoint.name: Emax

INSERT INTO measurements (chem_smiles, reading) VALUES
  ('Cc1cc(-n2nc(C#N)c(=O)[nH]c2=O)cc(C)c1Oc1ccc2[nH]cc(C(C)C)c2c1', '> 75%'),
  ('CC1(C)CC(c2cc(Oc3c(Cl)cc(-n4nc(N)c(=O)[nH]c4=O)cc3Cl)n[nH]c2=O)C1', '< 50%'),
  ('Nc1nn(-c2cc(Cl)c(Oc3cc(C4CCOCC4)c(=O)[nH]n3)c(Cl)c2)c(=O)[nH]c1=O', '50 to 75%'),
  ('Nc1nn(-c2cc(Cl)c(Oc3ccc4c(c3)C3(CCCCC3)C(=O)N4)c(Cl)c2)c(=O)[nH]c1=O', '50 to 75%'),
  ('Cc1cc(-n2nc(C#N)c(=O)[nH]c2=O)cc(C)c1Cc1ccc2[nH]cc(C(C)C)c2c1', '> 75%'),
  ('CC(C)c1cc(Oc2c(Cl)cc(-n3nc(N)c(=O)[nH]c3=O)cc2Br)n[nH]c1=O', '> 75%'),
  ('O=c1cnn(-c2cc(Cl)c(Oc3cc(-c4ccc5ccccc5c4)c(=O)[nH]n3)c(Cl)c2)c(=O)[nH]1', '< 50%');

Value source: patent US12180192B2
